# assayed_system: UniProtKB Q9UQL6
# Sequence (Q9UQL6 whole entry, canonical isoform): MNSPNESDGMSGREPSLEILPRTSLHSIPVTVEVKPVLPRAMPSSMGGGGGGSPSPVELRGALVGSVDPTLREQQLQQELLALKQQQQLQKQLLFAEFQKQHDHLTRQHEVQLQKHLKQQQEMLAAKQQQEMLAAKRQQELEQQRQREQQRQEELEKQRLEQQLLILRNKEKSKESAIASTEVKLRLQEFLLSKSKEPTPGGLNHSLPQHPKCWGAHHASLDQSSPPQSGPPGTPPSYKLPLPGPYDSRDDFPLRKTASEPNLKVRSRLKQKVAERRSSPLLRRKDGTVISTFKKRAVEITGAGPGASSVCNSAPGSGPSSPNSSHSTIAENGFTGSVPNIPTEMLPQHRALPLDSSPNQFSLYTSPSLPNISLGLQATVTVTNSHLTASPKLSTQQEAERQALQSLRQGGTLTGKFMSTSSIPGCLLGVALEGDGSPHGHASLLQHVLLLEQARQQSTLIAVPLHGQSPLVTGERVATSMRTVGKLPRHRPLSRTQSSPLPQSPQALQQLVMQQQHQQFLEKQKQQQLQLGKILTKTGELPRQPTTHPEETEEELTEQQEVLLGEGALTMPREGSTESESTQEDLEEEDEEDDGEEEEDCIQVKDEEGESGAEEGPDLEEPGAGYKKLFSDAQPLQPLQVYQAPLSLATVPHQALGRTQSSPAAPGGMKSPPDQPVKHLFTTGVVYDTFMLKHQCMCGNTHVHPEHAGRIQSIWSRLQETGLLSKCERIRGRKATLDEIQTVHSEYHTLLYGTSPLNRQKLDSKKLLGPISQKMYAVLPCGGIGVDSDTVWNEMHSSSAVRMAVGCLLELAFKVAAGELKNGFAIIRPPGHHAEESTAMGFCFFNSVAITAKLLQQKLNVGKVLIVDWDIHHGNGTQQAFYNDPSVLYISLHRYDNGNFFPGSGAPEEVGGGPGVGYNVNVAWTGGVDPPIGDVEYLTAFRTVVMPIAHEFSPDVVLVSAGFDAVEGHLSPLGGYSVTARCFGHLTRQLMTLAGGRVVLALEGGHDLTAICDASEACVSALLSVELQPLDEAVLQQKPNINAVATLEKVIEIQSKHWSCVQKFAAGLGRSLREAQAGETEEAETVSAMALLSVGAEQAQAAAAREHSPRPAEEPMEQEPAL
# experiment: HDAC isoform inhibition assay (Reaction Biology)
# particulars: generated at Reaction Biology Corporation
readout: pIC50
// returns pIC50 (minus log10 of molar concentration), number only

Item O=C(NO)c1ccc(CCCN2CCC(CN[C@H]3C[C@@H]3c3ccccc3)CC2)cc1 (relative stereo) was tested on UniProtKB Q9UQL6; the reported pIC50 is 5.94

----------
# assayed_system: UniProt:Q92769
# Sequence (Q92769 whole entry, canonical isoform): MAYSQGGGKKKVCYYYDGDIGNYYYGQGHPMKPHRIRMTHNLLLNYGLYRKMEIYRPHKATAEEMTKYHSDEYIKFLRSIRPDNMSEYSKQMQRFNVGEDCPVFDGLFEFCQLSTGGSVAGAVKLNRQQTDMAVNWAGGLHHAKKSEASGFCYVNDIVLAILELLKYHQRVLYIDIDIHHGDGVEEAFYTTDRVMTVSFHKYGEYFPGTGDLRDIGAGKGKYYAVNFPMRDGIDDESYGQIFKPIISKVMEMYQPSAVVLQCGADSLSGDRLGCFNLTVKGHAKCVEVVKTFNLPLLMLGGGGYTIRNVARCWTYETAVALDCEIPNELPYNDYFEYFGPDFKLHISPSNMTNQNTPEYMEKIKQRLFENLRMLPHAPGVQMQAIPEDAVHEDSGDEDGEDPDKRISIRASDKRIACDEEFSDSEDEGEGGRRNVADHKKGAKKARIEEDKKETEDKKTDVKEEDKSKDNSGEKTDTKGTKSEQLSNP
# experiment: HDAC isoform inhibition assay (Reaction Biology)
# particulars: generated at Reaction Biology Corporation
readout: IC50
Reply with the number and its unit after it.

# IC50 of O=C(NO)c1ccc(CCCN2CCC(CN[C@H]3C[C@@H]3c3ccccc3)CC2)cc1 (relative stereo) = 3.95 µM

----------
# Test system: G362
# experiment: Cell proliferation assay (Alamar Blue)
# Assay type: cell-based
# particulars: G362, Melanoma, 144 h
readout: EC50 (µM)
Expressed in µM, but write only the number.

The compound listed as O=C(NO)c1ccc(CCCN2CCC(CN[C@H]3C[C@@H]3c3ccccc3)CC2)cc1 (relative stereo) shows EC50 equal to 7.64

----------
# assayed_system: HDAC9 (Homo sapiens, UniProt Q9UKV0)
# Sequence (Q9UKV0 whole entry, canonical isoform): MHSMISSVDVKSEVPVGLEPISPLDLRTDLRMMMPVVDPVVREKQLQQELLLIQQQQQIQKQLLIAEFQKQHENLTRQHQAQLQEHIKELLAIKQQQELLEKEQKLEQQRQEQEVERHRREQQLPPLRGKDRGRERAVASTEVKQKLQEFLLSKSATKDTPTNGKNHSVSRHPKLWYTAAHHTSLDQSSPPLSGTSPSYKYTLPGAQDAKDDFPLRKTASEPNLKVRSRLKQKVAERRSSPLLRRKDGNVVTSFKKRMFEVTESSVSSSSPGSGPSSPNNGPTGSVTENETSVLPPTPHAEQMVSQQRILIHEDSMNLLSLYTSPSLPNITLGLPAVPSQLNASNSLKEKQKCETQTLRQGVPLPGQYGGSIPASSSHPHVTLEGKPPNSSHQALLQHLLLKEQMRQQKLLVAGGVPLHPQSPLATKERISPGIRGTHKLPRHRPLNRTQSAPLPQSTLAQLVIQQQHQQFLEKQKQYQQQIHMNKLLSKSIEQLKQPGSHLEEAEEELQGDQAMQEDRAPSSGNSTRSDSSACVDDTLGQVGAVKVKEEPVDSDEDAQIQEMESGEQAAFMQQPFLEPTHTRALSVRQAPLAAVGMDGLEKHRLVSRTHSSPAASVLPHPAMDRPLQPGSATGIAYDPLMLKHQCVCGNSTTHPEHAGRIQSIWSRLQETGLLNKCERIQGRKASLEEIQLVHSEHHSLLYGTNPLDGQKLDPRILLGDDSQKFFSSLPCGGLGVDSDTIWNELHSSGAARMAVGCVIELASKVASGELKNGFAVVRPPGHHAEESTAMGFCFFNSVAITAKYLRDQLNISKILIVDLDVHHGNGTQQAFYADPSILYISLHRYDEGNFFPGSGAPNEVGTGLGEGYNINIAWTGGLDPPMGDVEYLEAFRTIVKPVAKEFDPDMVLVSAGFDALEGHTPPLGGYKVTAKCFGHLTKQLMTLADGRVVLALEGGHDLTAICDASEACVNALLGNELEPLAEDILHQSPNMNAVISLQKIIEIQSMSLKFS
# experiment: HDAC isoform inhibition assay (Reaction Biology)
# particulars: generated at Reaction Biology Corporation
readout: IC50
The answer should read as a number with its unit following.

Value of IC50 reported for the molecule O=C(NO)c1ccc(CCCN2CCC(CN[C@H]3C[C@@H]3c3ccccc3)CC2)cc1 (relative stereo) [JBI-097] is 3.43 µM

Values from paper PMC9810167
